# run-description: chemical genetic growth profiling, strain panel (AID 1159580);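 further: tested at 20 µM; growth read once vehicle control cultures reached saturation at 30 °C; 1 = growth at the plate median or of vehicle wells; lower values mean less growth of the strain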
# reported-conditions: S. cerevisiae deletion strains, growth OD, locus YMR263W, strain SAP30, active compounds read low
The campaign covered roughly 5,500 compounds. About 2,000 (36%) were called active. Not shown: some 18% with an inconclusive outcome. The list shows a part of the results.
measured-endpoint: normalized growth
Answers are plain numbers.

Worked examples follow.
Q: Need normalized growth, item COc1ccc(OC)c(S(=O)(=O)Nc2ccc(C#N)cc2)c1
Ans: 0.997

Q: Need normalized growth, item Cc1ccc(NC(=S)NNC(C)(C)C)cc1
Ans: 1.03

Q: Need normalized growth, item COc1cc2c(cc1OC)C1C(=O)c3c(OC)cc4c(c3OC1CO2)CCC(C)(C)O4 (centres undefined)
Ans: 1.03

Next compound, please.
Q: Need normalized growth, item CC1CC2C3CC(F)C4=CC(=O)C=CC4(C)C3(F)C(O)CC2(C)C1(O)C(=O)CO (centres undefined)
Ans: 1.04

---

# run-description: chemical genetic growth profiling, strain panel (AID 1159580);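 further: tested at 20 µM; growth read once vehicle control cultures reached saturation at 30 °C; 1 = growth at the plate median or of vehicle wells; lower values mean less growth of the strain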
# reported-conditions: S. cerevisiae deletion strains, growth OD, locus YNL307C, strain MCK1
About 2,000 (36%) of roughly 5,500 compounds were called active. Another 18% or so got no clear call; they are omitted. Rule as the data show it: active = normalized growth mostly below about 0.91 (no sharp cut-off); inconclusive = no clear call, values can overlap the other calls; inactive = mostly above about 0.92. The list shows a part of the results.
Select the correct class. Options are active, inactive and nothing else.

Worked cases, answers included:
Q: Would you mind telling me which call this test gave CC(N)CCCC(C)(C)O (configuration not stated) ?
Ans: inactive

Q: Would you mind telling me which call this test gave COCCc1ccc(OCC(O)CNC(C)C)cc1 (configuration not stated) ?
Ans: inactive

Q: Would you mind telling me which call this test gave C[C@H]1OC(n2cc(F)c(=O)[nH]c2=O)C(O)[C@@H]1O (some centres not stated) ?
Ans: inactive

Q: Would you mind telling me which call this test gave c1ccc(N=Nc2ccccc2)cc1 ?
Ans: inactive

---
Q: Would you mind telling me which call this test gave CCOC(=O)C(C)(C)Oc1ccc(Cl)cc1 ?
Ans: inactive

Q: Would you mind telling me which call this test gave CC(=O)OCC(=O)[C@@]1(O)CCC2C3CCC4=CC(=O)CC[C@]4(C)C3C(=O)C[C@@]21C (some centres not stated) ?
Ans: inactive

Q: Would you mind telling me which call this test gave CCC(C)C(OC(C)=O)C(=O)OC1C(O)C2C3(C)C=CC(=O)C(C)(C)C3CC(OC(=O)C(O)C(C)C)C2(C)C23OC2CC(c2ccoc2)C13C (configuration not stated) ?
Ans: inactive

Q: Would you mind telling me which call this test gave N=c1ccn2c(n1)O[C@@H]1C2O[C@H](CO)[C@H]1O (some centres not stated) ?
Ans: inactive

Q: Would you mind telling me which call this test gave O=C(O)c1c2ccccc2cc2ccccc12 ?
Ans: inactive

---

# run-description: chemical genetic growth profiling, strain panel (AID 1159580);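 further: tested at 20 µM; growth read once vehicle control cultures reached saturation at 30 °C; 1 = growth at the plate median or of vehicle wells; lower values mean less growth of the strain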
# reported-conditions: S. cerevisiae deletion strains, growth OD, locus YCL011C, strain gbp2, active compounds read low
Among all 5,500 compounds or so, about 2,000 (36%) were called active. Not shown: some 18% with an inconclusive outcome. This is one part of the list.
measured-endpoint: normalized growth

Q: Need normalized growth, item CC1=C(/C=C/C(C)=C/C=C/C(C)=C/C=C/C=C(C)/C=C/C=C(C)/C=C/C(=O)[C@]2(C)C[C@@H](O)CC2(C)C)C(C)(C)C[C@H](O)C1
Ans: 1.01 (inactive)

Q: Need normalized growth, item CCOC(=O)c1c(C)c(Cl)c(O)c(Cl)c1O
Ans: 0.499 (active)

Q: Need normalized growth, item CC(C[N+](C)(C)C)OC(N)=O (stereo unspecified)
Ans: 1.01 (inactive)

Q: Need normalized growth, item C[N+](C)(C)CCOC(N)=O
Ans: 1.01 (inactive)

Q: Need normalized growth, item NCC1CCC(C(=O)O)CC1 (stereo unspecified)
Ans: 1 (inactive)

Return reported normalized growth values for all items listed beneath this line.
1. CC1=C(/C=C/C(C)=C/C=C/C(C)=C/C=C/C=C(C)/C=C/C=C(C)/C=C/C2=C(C)C(=O)CCC2(C)C)C(C)(C)CCC1=O
2. CCOC(=O)C(=O)C1(C(=O)OCC)Oc2cc(OC)cc(OC)c2C(=O)C1c1ccccc1 (stereo unspecified)
3. CC(=O)[C@H]1CCC2C3CCC4=CC(=O)CC[C@]4(C)C3CC[C@@]21C (stereo partly specified)
4. COc1ccc2c(c1)O[C@@H]1COc3cc(OC)c(OC)cc3[C@@H]1C2=O
5. C=C(C)C1CNC(C(=O)O)C1CC(=O)O (stereo unspecified)
6. CNC(C)[C@H](O)c1ccccc1 (stereo partly specified)
7. COc1cc2c(cc1OC)[C@@H]1C(=O)c3ccc(O)c(CC=C(C)C)c3O[C@@H]1CO2

Ans:
0.96 (inactive)
0.925 (inactive)
0.971 (inactive)
0.674 (active)
0.985 (inactive)
1.01 (inactive)
1.06 (inactive)

Return reported normalized growth values for all items listed beneath this line.
1. ClC1=C(Cl)C2(Cl)C3C(Cl)C=CC3C1(Cl)C2(Cl)Cl (stereo unspecified)
2. CCN(CC)CCCC(C)Nc1ccnc2cc(Cl)ccc12 (stereo unspecified)

Ans:
1. 0.996 (inactive)
2. 1.04 (inactive)

Return reported normalized growth values for all items listed beneath this line.
1. CC(NCCc1ccc(O)cc1)C(O)c1ccc(O)cc1 (stereo unspecified)
2. CC1CC2C3CC(F)C4=CC(=O)C=CC4(C)C3(F)C(O)CC2(C)C1(O)C(=O)CO (stereo unspecified)

Ans:
1. 0.991 (inactive)
2. 0.992 (inactive)

Return reported normalized growth values for all items listed beneath this line.
1. CCCCCCNC(=O)n1cc(F)c(=O)[nH]c1=O
2. Cc1cc(O)c(C=O)c(O)c1C(=O)O
3. COc1cc2c(cc1OC)[C@@H]1C(=O)c3ccc4oc(C(C)C)cc4c3O[C@@H]1CO2
4. CS(=O)(=O)c1ccc(C2=C(c3ccccc3)C(=O)OC2)cc1
5. CCN(CCO)CCCC(C)Nc1ccnc2cc(Cl)ccc12 (stereo unspecified)
6. CCCCCCCCCCCCCCCC[N+](C)(C)C
7. CC(=O)OCC(=O)[C@@]1(O)CCC2C3CCC4=CC(=O)CC[C@]4(C)C3C(=O)C[C@@]21C (stereo partly specified)

Ans:
["0.91 (inactive)", "1.01 (inactive)", "0.97 (inactive)", "0.975 (inactive)", "1 (inactive)", "0.055 (active)", "1.01 (inactive)"]

Return reported normalized growth values for all items listed beneath this line.
1. OCCN1C[C@@H](O)[C@@H](O)C(O)C1CO (stereo partly specified)
2. COc1cc(O)c(C(=O)/C=C/c2ccccc2)c(OC)c1
3. CC(N)CCCC(C)(C)O (stereo unspecified)

Ans:
1. 0.996 (inactive)
2. 0.867 (active)
3. 0.969 (inactive)

Return reported normalized growth values for all items listed beneath this line.
1. CC(C)c1c(C(=O)c2ccccc2)c(-c2ccccc2)c(-c2ccc(F)cc2)n1CC[C@@H](O)C[C@@H](O)CC(=O)O
2. CCC(=O)O[C@H]1CCC2C3CCC4=CC(=O)CC[C@]4(C)C3CC[C@@]21C (stereo partly specified)
3. CC1=C(/C=C/C(C)=C/C=C/C(C)=C/C=C/C=C(C)/C=C/C=C(C)/C=C/C2=C(C)C(=O)C(O)CC2(C)C)C(C)(C)CC(O)C1=O (stereo unspecified)

Ans:
1. 0.942 (inactive)
2. 0.843 (active)
3. 1.04 (inactive)

Return reported normalized growth values for all items listed beneath this line.
1. CN[C@@H](C)[C@@H](O)c1ccccc1
2. CCN(CC)CCCC(C)Nc1c2ccc(Cl)cc2nc2ccc(OC)cc12 (stereo unspecified)
3. CC1CC2C3CCC4=CC(=O)C=C[C@]4(C)[C@@]3(F)[C@@H](O)C[C@]2(C)[C@@]1(O)C(=O)CO (stereo partly specified)
4. O=C(O)c1c2ccccc2cc2ccccc12

Ans:
0.971 (inactive)
0.965 (inactive)
0.954 (inactive)
0.998 (inactive)

Return reported normalized growth values for all items listed beneath this line.
1. COc1cc2c(cc1OC)[C@@H]1C(=O)c3ccc4c(c3O[C@@H]1CO2)C=CC(C)(C)O4
2. C=C1C2CC[C@H]3[C@]4(C)C[C@H](OC5OC(CO)C(OS(=O)(=O)O)C(OS(=O)(=O)O)C5OC(=O)CC(C)C)C[C@@H](C(=O)O)[C@H]4CC[C@]3(C2)[C@H]1O (stereo partly specified)
3. COc1cc(O)c(C(=O)/C=C/c2ccc(O)c(OC)c2)c(OC)c1
4. CN(C)c1ccc(C(=C2C=CC(=[N+](C)C)C=C2)c2ccc(N(C)C)cc2)cc1
5. CCCCCCCCNC(C)C(O)c1ccc(SC(C)C)cc1 (stereo unspecified)
6. S=c1nc[nH]c2nc[nH]c12

Ans:
0.98 (inactive)
1.01 (inactive)
0.947 (inactive)
0.524 (active)
0.055 (active)
0.972 (inactive)

Return reported normalized growth values for all items listed beneath this line.
1. CN1CCC(=C2c3ccccc3CCc3sccc32)CC1
2. COc1cc(O)c(C(=O)/C=C/c2ccc(OC)c(O)c2)c(OC)c1

Ans:
0.958 (inactive)
0.91 (inactive)
